Hello, the source for this data is ChEMBL document CHEMBL5154791, in case you need it.

For each of the compounds below, state its pIC50.
# MEASURED_ON: Adenylate cyclase type 8 (Homo sapiens, UniProt P40145)
# Sequence (P40145 whole entry): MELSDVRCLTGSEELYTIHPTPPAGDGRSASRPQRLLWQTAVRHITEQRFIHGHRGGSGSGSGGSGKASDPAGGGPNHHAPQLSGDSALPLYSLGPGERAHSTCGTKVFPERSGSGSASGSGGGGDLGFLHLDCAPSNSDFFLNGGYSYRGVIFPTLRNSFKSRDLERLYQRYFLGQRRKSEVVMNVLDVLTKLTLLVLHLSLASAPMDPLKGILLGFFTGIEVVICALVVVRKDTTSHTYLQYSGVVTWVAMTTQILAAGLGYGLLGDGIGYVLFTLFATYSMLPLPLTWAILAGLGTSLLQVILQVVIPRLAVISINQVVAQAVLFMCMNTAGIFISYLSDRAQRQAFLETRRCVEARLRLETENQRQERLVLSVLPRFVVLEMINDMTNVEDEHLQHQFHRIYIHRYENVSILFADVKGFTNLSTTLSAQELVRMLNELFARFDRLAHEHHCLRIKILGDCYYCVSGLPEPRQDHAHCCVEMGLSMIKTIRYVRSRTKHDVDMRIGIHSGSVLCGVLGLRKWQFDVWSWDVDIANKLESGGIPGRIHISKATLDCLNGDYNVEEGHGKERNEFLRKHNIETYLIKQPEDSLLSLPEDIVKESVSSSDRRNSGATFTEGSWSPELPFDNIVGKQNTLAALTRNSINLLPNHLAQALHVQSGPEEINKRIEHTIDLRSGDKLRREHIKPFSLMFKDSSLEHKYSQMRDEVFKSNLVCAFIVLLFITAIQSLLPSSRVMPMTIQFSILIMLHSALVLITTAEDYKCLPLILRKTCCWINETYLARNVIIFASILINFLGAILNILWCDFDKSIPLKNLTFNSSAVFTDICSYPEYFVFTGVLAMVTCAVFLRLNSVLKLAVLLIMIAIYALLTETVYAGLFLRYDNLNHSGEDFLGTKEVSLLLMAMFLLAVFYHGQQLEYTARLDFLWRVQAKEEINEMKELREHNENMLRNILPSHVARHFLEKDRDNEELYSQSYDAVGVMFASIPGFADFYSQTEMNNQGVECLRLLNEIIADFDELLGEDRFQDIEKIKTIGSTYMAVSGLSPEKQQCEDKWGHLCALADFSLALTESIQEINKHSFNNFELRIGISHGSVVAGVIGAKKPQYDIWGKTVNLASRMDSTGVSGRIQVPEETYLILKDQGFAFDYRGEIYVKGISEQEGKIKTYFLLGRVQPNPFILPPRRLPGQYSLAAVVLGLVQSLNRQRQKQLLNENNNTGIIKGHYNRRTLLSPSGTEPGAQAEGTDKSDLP
# ASSAY_NAME: Inhibition of Ca2+/ CAM stimulated human AC8 activity expressed in AC3 and AC6-knockout HEK293 cells assessed as A23187 stimulated cAMP accumulation incubated for 30 mins followed by […] in presence of IBMX for 1 hr by HTRF assay
Answers are plain numbers, as −log10 of the molar value.

Reference set (3 entries):
CCc1cc(=O)[nH]c(-n2nc(C)cc2NC(=O)c2cccc(C)c2)n1 ... 5.57
CCc1cc(=O)[nH]c(-n2nc(C)cc2NC(=O)c2cccc(OC)c2)n1 ... 5.02
CCc1cc(=O)[nH]c(-n2nc(C)cc2NC(=O)c2ccccc2F)n1 ... 5.72

For each listed entry, give its pIC50.
1. CCc1cc(=O)[nH]c(-n2nc(C)cc2NC(=O)c2cccc(C(C)C)c2)n1
2. CCc1cc(=O)[nH]c(-n2nc(C)cc2NC(=O)c2ccc(F)cc2)n1
3. CCc1cc(=O)[nH]c(-n2nc(C)cc2NC(=O)c2ccc(C(C)(C)C)cc2)n1

Response:
[5.59, 6.11, 5.92]

The value of pIC50 recorded for CCc1cc(=O)[nH]c(-n2nc(C)cc2NC(=O)c2ccccc2)n1 when tested on Adenylate cyclase type 8 (Homo sapiens, UniProt P40145) reads 4.44

---

# MEASURED_ON: Adenylate cyclase type 8 (Homo sapiens, UniProt P40145)
# ASSAY_NAME: Inhibition of Ca2+/ CAM stimulated human AC8 activity expressed in AC3 and AC6-knockout HEK293 cells assessed as A23187 stimulated cAMP accumulation incubated for 30 mins followed by […] in presence of IBMX for 1 hr by HTRF assay
Hi there, I'd appreciate the recorded pIC50 for every entry that follows.
Numbers only, as −log10 of the molar value.

Some molecules with recorded pIC50:
CCc1ccc(C(=O)Nc2cc(C)nn2-c2nc(CC)cc(=O)[nH]2)cc1 ... 5.18
CCc1cc(=O)[nH]c(-n2nc(C)cc2NC(=O)c2cccc(C(F)(F)F)c2)n1 ... 5.89
CCc1cc(=O)[nH]c(-n2nc(C)cc2NC(=O)c2cccc(C3CC3)c2)n1 ... 5.72
CCc1cc(=O)[nH]c(-n2nc(C)cc2NC(=O)c2cccc(Cl)c2)n1 ... 6.00
CCc1cccc(C(=O)Nc2cc(C)nn2-c2nc(CC)cc(=O)[nH]2)c1 ... 5.46

Here are 7 molecules. What values of pIC50 were reported for them?
1. CCc1cc(=O)[nH]c(-n2nc(C)cc2NC(=O)c2cccc(C(C)(C)C)c2)n1
2. CCc1cc(=O)[nH]c(-n2nc(C)cc2NC(=O)c2ccc(-c3ccccc3)cc2)n1
3. CCc1cc(=O)[nH]c(-n2nc(C)cc2NC(=O)c2ccc(C)c(C)c2)n1
4. CCc1cc(=O)[nH]c(-n2nc(C)cc2NC(=O)c2ccco2)n1
5. CCc1cc(=O)[nH]c(-n2nc(C)cc2NC(=O)c2ccc(N(C)C)cc2)n1
6. CCc1cc(=O)[nH]c(-n2nc(C)cc2NC(=O)c2cccc(-c3ccccc3)c2)n1
7. CCc1cc(=O)[nH]c(-n2nc(C)cc2NC(=O)c2cccc(SC)c2)n1

Response:
1: 6.42; 2: 6.15; 3: 6.15; 4: 4.80; 5: 6.00; 6: 6.24; 7: 5.89

Take each entry in turn and give its pIC50.
1. CCc1cc(=O)[nH]c(-n2nc(C)cc2NC(=O)c2cccc(F)c2)n1
2. CCc1cc(=O)[nH]c(-n2nc(C)cc2NC(=O)c2ccccc2C)n1
3. CCOc1cccc(C(=O)Nc2cc(C)nn2-c2nc(CC)cc(=O)[nH]2)c1
4. CCc1cc(=O)[nH]c(-n2nc(C)cc2NC(=O)c2cc(C)cc(C)c2)n1
5. CCc1cc(=O)[nH]c(-n2nc(C)cc2NC(C)=O)n1

Response:
[5.80, 4.80, 5.36, 5.77, 4.97]
